Data origin, for the record: PubChem BioAssay (EPA / NIEHS)

- Read-out: Matrix Metallopeptidase 1 (MMP1), MMP1 (gene 4312)
- method description: BSK_BE3C_MMP1: BioMAP Diversity Plus: BE3C Assay for Matrix Metallopeptidase 1 (MMP1) Biomarker Activity (AID 2283024)
- recorded conditions: primary human bronchial epithelial cells; actives raise or lower the signal
Calls of active or inactive are those of the source. How the source made its calls: active means hit-call score of the fitted dose curve at least 0.9, where 1 is the maximum; inactive means score below 0.9.
Outcome codes: label 1 (active), label 0 (inactive)

* CC(C)(C)c1ccccc1O | label 0
* Cc1c([N+](=O)[O-])c(C)c([N+](=O)[O-])c(C(C)(C)C)c1[N+](=O)[O-] | label 1
* O=C(CCl)NCO | label 0
* CCOP(=O)(OCC)SCCSCC | label 0
* O=S(=O)(C(Cl)(Cl)Cl)C(Cl)(Cl)Cl | label 1
* O=S(=O)(c1ccc(Cl)cc1)c1cc(Cl)c(Cl)cc1Cl | label 0
* C=CC(Cl)CCl (centres undefined) | label 0
* O=C(Cc1ccccc1)OCCc1ccccc1 | label 0
* C[C@]12CC[C@@H](O)C[C@@H]1CC[C@@H]1[C@@H]2CC[C@]2(C)C(=O)CC[C@@H]12 | label 0
* Oc1ccc(Cc2ccc(O)cc2)cc1 | label 0
* OCCCCO | label 0
* CC(C)(C)c1cc([N+](=O)[O-])cc(C(C)(C)C)c1O | label 0
* CC(C)N(C(=O)CCl)c1ccccc1 | label 0
* Clc1cccc(Cl)c1 | label 0
